Molecular target: ScMyo3
Assay: SPOT peptide array binding signal intensity (averaged, normalized) (arbitrary units (background-subtracted, floor 0; scale differs between SH3 domains)); higher = stronger binding of the SH3 domain to the peptide
Entries and their SPOT peptide array binding signal intensity values follow.
reported-property: SPOT peptide array binding signal intensity

binder: LLRRTIPKRPFYHVL
relation-qualifier: =
assay-value: 0.5
--
binder: KKAPPPVVKPKPRNF
relation-qualifier: ≤
assay-value: 0
--
binder: SKIRPTPRKPSRMAT
relation-qualifier: =
assay-value: 0.5
--
binder: IPSRPAPKPPSSASA
relation-qualifier: =
assay-value: 3540
--
binder: RPPRPPPKPLHLRTE
relation-qualifier: =
assay-value: 72.8
--
binder: KTKQQKPAIPQKKSF
relation-qualifier: =
assay-value: 19
--
binder: TSIEIPKRSPLRFTS
relation-qualifier: =
assay-value: 11.5
